- Test system: abdominal cramps caused by PBQ
- Test details: Abdominal contractions induced by phenyl-p-benzoquinone (PBQ) in the NMRI mouse
- Type: in vivo
- Condition context: 10 mg/kg IP
Where a name gives a salt, the structure may show the parent alone.
Metric: reduction of the number of abdominal cramps caused by PBQ (%)
Report the value in % with no unit label.

CNC1(CNc2ccc(Cl)nc2)CC1.Cl.Cl; −52
CNC1(CN(C)c2cccnc2)CC1.Cl.Cl; −76
CNC1(CNc2cccnc2)CC1.Cl.Cl; −50

Switching to the query record.
Hi! What's the reported reduction of the number of abdominal cramps caused by PBQ for CNC1(CN(C)c2ccc(Cl)nc2)CC1 [Example 10, dihydrochloride] on abdominal cramps caused by PBQ?
−69

meta.source: patent US7388022B2
